- assay-name: Phase 1 pharmacokinetic study of inhaled cromolyn, plasma
- Format: in vivo, human
- condition-context: human, inhaled, 17.1 mg, Min, read-out: Cmax

compound | Cmax (ng/mL)
O=C(O)c1cc(=O)c2c(OCC(O)COc3cccc4oc(C(=O)O)cc(=O)c34)cccc2o1 [cromolyn] | 14

----------
- assay-name: Phase 1 pharmacokinetic study of inhaled cromolyn, plasma
- Format: in vivo, human
- condition-context: human, inhaled, 17.1 mg, Max
measured-quantity: Vd/F (L)

sample-smiles | measured-quantity | u | meas-value
O=C(O)c1cc(=O)c2c(OCC(O)COc3cccc4oc(C(=O)O)cc(=O)c34)cccc2o1 | Vd/F | L | 144
